# Assayed system: kinase domain protein of RC kinase (Homo sapiens)
# Sequence (Q56UN5 1061-1324 limits assumed): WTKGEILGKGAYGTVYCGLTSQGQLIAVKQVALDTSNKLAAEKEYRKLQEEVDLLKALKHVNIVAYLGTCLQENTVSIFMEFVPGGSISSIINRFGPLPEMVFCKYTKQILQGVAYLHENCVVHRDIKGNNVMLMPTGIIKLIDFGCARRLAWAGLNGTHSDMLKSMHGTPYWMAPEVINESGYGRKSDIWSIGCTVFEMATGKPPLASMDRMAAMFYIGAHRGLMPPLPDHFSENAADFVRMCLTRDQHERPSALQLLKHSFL
# Measurement notes: Enzymatic assay for kinase inhibitory activity (Crebtide substrate, LANCE readout), kinase domain protein
# Assay type: biochemical
# Settings: test compound 1 μM, ATP 1 μM, Crebtide 50 nM
Reported property: inhibition at 1 µM

Some compounds with known inhibition at 1 µM results, for comparison:
> print(dat)
                                   compound                            assayed.system   reported.property  result.value
1  NC(=O)c1c(Nc2cccnc2)n[nH]c1NCc1ccc(Cl)cc1 [Compound D154]  kinase domain protein of RC kinase (Homo sapiens)  inhibition at 1 µM      5 to 20%
2  COc1ccccc1C(=O)Nc1ccc(Nc2n[nH]c(NCc3ccc(O)cc3)c2C(N)=O)cc1 [Compound D143]  kinase domain protein of RC kinase (Homo sapiens)  inhibition at 1 µM         ≥ 50%
3  NC(=O)c1c(Nc2ccc(S(N)(=O)=O)cc2)n[nH]c1NCc1ccc(O)cc1 [Compound D107]  kinase domain protein of RC kinase (Homo sapiens)  inhibition at 1 µM         ≥ 50%

Parameter requested: inhibition at 1 µM. Apply to each item below.
1. N#Cc1c(Nc2cccc(Cl)c2)n[nH]c1NCc1ccc(O)cc1 [Compound C31]
2. CC1CCN(C2CCN(c3ccc(Nc4n[nH]c(NCc5ccc(O)cc5)c4C(N)=O)cn3)CC2)CC1 [Compound D119]
3. NC(=O)c1c(Nc2ccc(-c3cnco3)cc2)n[nH]c1NCc1ccc(O)cc1 [Compound D111]
4. NC(=O)c1c(Nc2ccc(-n3cccn3)cc2)n[nH]c1NCc1ccc(O)cc1 [Compound D79]

≤ 5%
≥ 50%
≥ 50%
≥ 50%
